B1: KCNG1 (parent)
chain: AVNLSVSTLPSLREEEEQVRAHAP

- Variants of: B1
- experimentSummary: protein stability index of a GFP-peptide fusion (GPS, HEK-293T) (PSI 1-6); higher = more stable;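 note: lentivirally expressed fusions sorted by FACS into six bins by GFP to DsRed ratio, PSI derived from sequencing read proportions per bin multiplied by bin number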
- particulars: c terminus: a fixed tail appended
propertyName: protein stability index

Here's what some known entries look like.
T8L: 4.55
E15Y: 3.64
V19E: 5.3
R13G: 4.55
E15K: 4.82

I am curious: what protein stability index value has been reported for `R13V` ?
4.81

Input `L4F`
4.51

Input `R20M`
5.2

Input `L12H`
5.17

Input `P24L`
4.94
